Each entry below lists one item and its recorded VNA IC50 value.
target_of_assay: hemagglutinin (HA) of influenza B/Brisbane/60/08 (Victoria) (influenza B virus)
protocol: cell-based or functional assay
readout_type: VNA IC50 (nM)

* SD1087 (VHH) VHH: EVQLVESGGGLVQPGGSLRLSCVISGLSLDTYAVGWFRQAPGKEREGITCISSGHGMTYYADSVKGRFTVSTDNAKNTVYLQMNGLQPEDTARYYCATESRYYCSDNWPAPQRYIYWGQGTQVTVSS | 34
* SD3085 (VHH) VHH: EVQLVESGGGLVQPGGSLRLSCAASGFTFSTSWMYWLRQAPGKGLEWVSVINTDGGTYYADSVKGRFTISRDNSKNTLYLQMNSLRAEDTAVYYCAKDWGGPEPTRGQGTLVTVSS | 12
* SD3010 (VHH) VHH: EVQLLESGGGLVQPGGSLRLSCAASGFTLENKAIGWFRQAPGKEREGVLCISKSGSWTYYADSVKGRFTISRDNSKNTLYLQMNSLRAEDTAVYYCATTTAGGGLCWDGTTFSRLASSWGQGTQVTVSS | 149
* SD3069 (VHH) VHH: EVQLVESGGGLVQPGGSLRLSCAISGLSLDTYAVGWFRQAPGKEREGITCISSGHGMTYYADSVKGRFTVSTDNSKNTLYLQMNSLRAEDTAVYYCATESRYYCSDNWPAPQRYIYWGQGTLVTVSS | 56
* SD1083 (VHH) VHH: EVQLVESGGGLVQPGGSLRLSCAATGFTLENKAIGWFRQTPGSEREGVLCISKSGSWTYYTDSMRGRFTISRDNAENTVYLQMDSLKPEDTAVYYCATTTAGGGLCWDGTTFSRLASSWGQGTQVTVSS | 174
* SD3093 (VHH) VHH: EVQLVESGGGLVQPGGSLRLSCAISGLSLDTYAVGWFRQAPGKEREGVSCISSGHGMTYYADSVKGRFTISTDNSKNTVYLQMNSLRAEDTAVYYCATESRYYCSDNWPAPQRYIYWGQGTLVTVSS | 32
* SD3004 (VHH) VHH: EVQLVESGGGLVQPGGSLRLSCAASGFTFSTSWMYWLRQAPGKGLEWVSVINTDGGTYYADSVKGRFTISRDNSKDTLYLQMNSLRAEDTAVYYCAKDWGGPEPTRGQGTQVTVSS | 5

The measured values listed here are drawn from patent US20190359693A1.
